All values here come from PubChem BioAssay AID1851.

target: Cytochrome P450 2C9 (Homo sapiens); assay: Cytochrome panel assay with activity outcomes; settings: recombinant CYP, pro-luciferin dealkylation, luminescence, p450-cyp2c9; series mostly up to 57.1 µM
Hit rate of the full screen: of about 16,000 compounds, about 4,000 (25%) were called active. Roughly 26% stayed inconclusive and do not appear here. The call rests on the fitted dose curve; in most records, active means well fitted curve in the direction sought with a large enough effect; inconclusive means small, poorly fitted or top-dose-only effect, or effect the other way; inactive means no such curve, though single readings can be large or run the other way. The list is a sample of the results.
Classes used: yes (1) = active, no (0) = inactive

OC[C@@H](O)CN1CCN(c2ccccc2)CC1 = no (0)
C=CCNC(=O)c1csc(-c2ccccc2)n1 = yes (1)
O=c1c(Oc2ccccc2Br)c(C(F)(F)F)oc2c(CN3CCCC3)c(O)ccc12 = no (0)
CCC(=O)[C@@]1(C)[C@H](C)C[C@@H]2[C@@H]3CCC4=CC(=O)C=C[C@@]4(C)[C@H]3[C@H](O)C[C@]21C = no (0)
N#CCCn1c(=O)cnc2cnc(Oc3ccccc3)nc21 = no (0)
O=C(CSc1nnc(-c2ccco2)n1-c1ccccc1)NCc1ccco1 = no (0)
Cc1cc(C)c(NC(=O)C(C)Sc2nnc(-c3ccco3)n2-c2ccccc2)c(C)c1 (stereo not given) = yes (1)
CC(C)CC(c1nnnn1C(C)C)N1CCN(c2ccccc2)CC1 (stereo not given) = yes (1)
CN1CCN(c2ncc3ncc(=O)n(Cc4ccc(F)cc4)c3n2)CC1 = no (0)
C=CCNC(=O)c1ccc(-c2nc(-c3ccc(Cl)c(Cl)c3)cs2)cc1 = no (0)
